Assay system: Leucine aminopeptidase (Plasmodium falciparum (isolate 3D7)) (UniProt Q8IL11)
Sequence (Q8IL11 whole entry, looked up): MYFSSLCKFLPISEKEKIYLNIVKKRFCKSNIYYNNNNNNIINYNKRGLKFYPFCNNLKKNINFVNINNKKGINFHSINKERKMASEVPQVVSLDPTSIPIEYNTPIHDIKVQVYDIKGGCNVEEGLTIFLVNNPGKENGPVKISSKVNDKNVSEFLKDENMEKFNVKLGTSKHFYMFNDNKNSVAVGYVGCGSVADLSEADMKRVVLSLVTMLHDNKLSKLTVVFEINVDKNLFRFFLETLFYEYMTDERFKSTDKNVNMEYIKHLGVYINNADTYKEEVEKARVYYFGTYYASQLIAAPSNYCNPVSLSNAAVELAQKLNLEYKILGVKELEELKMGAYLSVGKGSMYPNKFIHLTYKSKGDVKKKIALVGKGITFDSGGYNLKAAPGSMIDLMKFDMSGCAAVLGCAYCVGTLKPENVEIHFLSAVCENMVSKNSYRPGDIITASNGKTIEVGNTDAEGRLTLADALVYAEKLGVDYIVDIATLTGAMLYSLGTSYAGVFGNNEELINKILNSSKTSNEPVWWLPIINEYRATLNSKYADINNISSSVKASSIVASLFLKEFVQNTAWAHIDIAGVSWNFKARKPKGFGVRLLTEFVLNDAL
Test method notes: P. falciparum M17LAP inhibitors, primary screen, biochemical, fluorogenic H-Leu-NHMec substrate, 1536-well (AID 1619);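 note: plate controls were full reaction with DMSO carrier for no effect and no enzyme background for full effect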
Measurement setup: recombinant M17LAP, H-Leu-NHMec fluorogenic kinetic assay; at 30 µM; stronger effect = higher value
Hit rate of the full screen: of about 220,000 compounds, about 830 (0.38%) were called active. The list is a sample of the results. Results with a measured potency or affinity are listed apart.
Measure name: inhibition (%)

molecule=CC(C)(C)S(=O)(=O)/C(C#N)=N/Nc1ccc(S(C)(=O)=O)cc1 measure_name=inhibition measurement=43.2
molecule="CCc1c(C)sc(NC(=O)C2CCCCC2C(=O)O)c1C(N)=O (centres undefined)" measure_name=inhibition measurement=50.6
molecule=O=C(CSc1nc2ccccc2n1CCc1ccccc1)c1ccc(O)c(O)c1 measure_name=inhibition measurement=-0.72
molecule=Cc1sc(NC(=O)/C=C/C(=O)O)c(C(N)=O)c1-c1ccc(C(C)(C)C)cc1 measure_name=inhibition measurement=21.9
molecule=Cn1cnnc1SCC(=O)c1ccc(O)c(O)c1 measure_name=inhibition measurement=38.8
molecule=COC(=O)C1=C(O)C2(C(=O)O)CC(C(=O)OC)=C(O)C(C(=O)O)(C1)C2 measure_name=inhibition measurement=-3.67
molecule=CC(=O)N1CCN(c2ccc(NC(=O)c3ccc4c(c3)OCO4)cc2)CC1 measure_name=inhibition measurement=-9.38
molecule=Cn1c(-c2ccccc2)n[nH]c1=S measure_name=inhibition measurement=-6.39
molecule="O=C(O)C1CCCCC1C(=O)Nc1nccs1 (centres undefined)" measure_name=inhibition measurement=15.9
molecule="O=C(O)C1CC=CCC1C(=O)NCCc1ccccc1 (centres undefined)" measure_name=inhibition measurement=42
molecule=Cn1c(NCCc2ccccc2)cc(=O)n(C)c1=O measure_name=inhibition measurement=1.23
molecule=COc1cc(C(=O)O)cc(NC(=O)c2cccs2)c1OC measure_name=inhibition measurement=27
molecule="CCCC(C)NS(=O)(=O)c1ccc(OC)c(C)c1 (centres undefined)" measure_name=inhibition measurement=1.13
molecule=COC(=O)c1c(NC(=O)/C=C/C(=O)O)sc(C)c1-c1ccc(C(C)C)cc1 measure_name=inhibition measurement=15.5
molecule=c1ccc(-c2nc3nc4ccccc4nc3n2Cc2ccco2)cc1 measure_name=inhibition measurement=1.08
molecule=CC(C)(C)S(=O)(=O)/C(C#N)=N/Nc1ccc(Cl)cc1 measure_name=inhibition measurement=12.6
molecule=Cc1sc(NC(=O)CCC(=O)O)c(C(N)=O)c1-c1ccccc1 measure_name=inhibition measurement=18
molecule=COc1ccc(N(CC(=O)Nc2ccc3c(c2)OCO3)S(=O)(=O)c2ccc(C)cc2)cc1OC measure_name=inhibition measurement=-12.9
molecule="CC(C)=C1C2CCC1C(C(=O)Nc1sc(C)c(-c3ccc(C(C)C)cc3)c1C(N)=O)C2C(=O)O (centres undefined)" measure_name=inhibition measurement=-4
molecule=COc1ccc(N/N=C(/C#N)S(=O)(=O)C(C)(C)C)cc1 measure_name=inhibition measurement=5.23
molecule=O=C(CSc1n[nH]c(-c2cccs2)n1)N1CCCc2ccccc21 measure_name=inhibition measurement=1.29
molecule="CCC(C)NC(=O)c1ccccc1NC(=O)CN1C(=O)c2ccccc2S1(=O)=O (centres undefined)" measure_name=inhibition measurement=-2.81
molecule="C/C(=C1/SC(N2CC(C)OC(C)C2)=NC1=O)c1ccccc1 (centres undefined)" measure_name=inhibition measurement=1.49
molecule="O=C(O)C1CC=CCC1C(=O)Nc1cccc(C(=O)N2CCCCC2)c1 (centres undefined)" measure_name=inhibition measurement=40.8
molecule="CC1CCCCN1Cc1c(C#N)c2ccccc2n1C (centres undefined)" measure_name=inhibition measurement=-2.84
molecule="Cc1sc(NC(=O)C2C3CCC(C3)C2C(=O)O)c(C(N)=O)c1-c1ccc(C(C)(C)C)cc1 (centres undefined)" measure_name=inhibition measurement=39.7
molecule=NC(=O)c1ncc(C(F)(F)F)cc1Oc1cccc(C(F)(F)F)c1 measure_name=inhibition measurement=-2.19
molecule=Cc1cccc(Nc2cnn(C34CC5CC(CC(CC(=O)O)(C5)C3)C4)c(=O)c2Cl)c1 measure_name=inhibition measurement=39.2
molecule="Cc1cc(C)cc(Oc2ccc(NC(=O)C3CC=CCC3C(=O)O)cc2)c1 (centres undefined)" measure_name=inhibition measurement=5.05
molecule="O=C(Nc1cccc([N+](=O)[O-])c1)C1C2CC/C=C\\CCC21 (centres undefined)" measure_name=inhibition measurement=0.68
molecule=Cc1cc(C)cc(Nc2cnn(C34CC5CC(CC(CC(=O)O)(C5)C3)C4)c(=O)c2Cl)c1 measure_name=inhibition measurement=45.8
molecule="Cc1cccc(Oc2ccc(NC(=O)C3CC=CCC3C(=O)O)cc2)c1 (centres undefined)" measure_name=inhibition measurement=2.18
molecule=CCn1c(SCC(=O)c2ccccc2)nnc1-c1cccnc1 measure_name=inhibition measurement=14.5
molecule=CC(C)(C)S(=O)(=O)/C(C#N)=N/Nc1ccc(C#N)cc1 measure_name=inhibition measurement=19.9
molecule=O=c1nc(-c2ccccc2)c2cc(Cl)ccc2[nH]1 measure_name=inhibition measurement=3.02
molecule=Cc1ccc(NC(=O)CCC(=O)OCC(=O)c2ccc(Oc3ccc([N+](=O)[O-])cc3)cc2)c(C)c1 measure_name=inhibition measurement=13.8
molecule=O=C(COC(=O)c1ccccc1OCc1ccc(Cl)cc1)NC1CC1 measure_name=inhibition measurement=-0.6
molecule="O=C(O)C1C2C=CC(C2)C1C(=O)Nc1cccc(F)c1 (centres undefined)" measure_name=inhibition measurement=23.1
molecule=CC(C)(C)c1ccc(N/N=C(\C#N)S(=O)(=O)C(C)(C)C)cc1 measure_name=inhibition measurement=23.4
molecule="O=C(O)C1CC=CCC1C(=O)Nc1cccc([N+](=O)[O-])c1 (centres undefined)" measure_name=inhibition measurement=14.2
molecule=CC(=O)c1ccc(Nc2cnn(C34CC5CC(CC(CC(=O)O)(C5)C3)C4)c(=O)c2Cl)cc1 measure_name=inhibition measurement=46.4
molecule=CCn1c(COc2ccc3c(c2)CCCC3)nnc1SCC(=O)Nc1ccc(C(=O)OC)cc1 measure_name=inhibition measurement=5.55
molecule=CCn1c(SCC(=O)OC)nnc1-c1ccc(C)cc1 measure_name=inhibition measurement=3.28
molecule="O=C(O)C1CCCCC1C(=O)NCCc1cccc(Cl)c1 (centres undefined)" measure_name=inhibition measurement=75
